FYI, the data here is from ChEMBL document CHEMBL3433997.

Attribute: inhibition
biological target: Solute carrier family 2, facilitated glucose transporter member 1 (Homo sapiens) (UniProt P11166); test: ST_JUDE_LEISH: Cytotoxicity at 2uM final concentration against transgenic Leishmania Mexicana promastigotes LmGLUT1 that are glucose transport deficient and complemented with the human glucose transporter GLUT1. Activity is measured by DNA content using SYBR green in vitro; assay type: functional
Sequence (P11166 whole entry): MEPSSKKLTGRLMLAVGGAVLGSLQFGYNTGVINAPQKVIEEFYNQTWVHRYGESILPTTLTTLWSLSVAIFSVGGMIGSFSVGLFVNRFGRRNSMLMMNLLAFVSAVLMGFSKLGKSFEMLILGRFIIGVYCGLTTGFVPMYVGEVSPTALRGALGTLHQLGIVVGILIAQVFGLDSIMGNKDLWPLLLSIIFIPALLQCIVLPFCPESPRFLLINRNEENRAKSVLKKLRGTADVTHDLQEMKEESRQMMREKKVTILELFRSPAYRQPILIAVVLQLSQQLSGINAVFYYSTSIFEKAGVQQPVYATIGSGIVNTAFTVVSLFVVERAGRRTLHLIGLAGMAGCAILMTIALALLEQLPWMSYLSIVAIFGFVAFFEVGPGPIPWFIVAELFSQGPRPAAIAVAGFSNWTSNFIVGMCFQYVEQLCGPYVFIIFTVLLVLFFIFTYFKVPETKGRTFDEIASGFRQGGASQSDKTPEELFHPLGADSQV

{"smiles-string": "CCN(CC)CCN(Cc1ccc(-c2ccc(C(F)(F)F)cc2)cc1)C(=O)Cn1c(/C=C/c2ccco2)nc(=O)c2ccccc21", "inhibition (%)": -0.7}
{"smiles-string": "CCn1cnc2c(N3CCCS3(=O)=O)cc(C(=O)N[C@@H](Cc3ccccc3)[C@H](O)CNC(C)(C)c3cccc(C(F)(F)F)c3)cc21", "inhibition (%)": 3.01}
{"smiles-string": "COc1ccc(C)c(Nc2ccnc(Nc3ccc(-c4cnc[nH]4)cc3)n2)c1", "inhibition (%)": 2.85}
{"smiles-string": "O=C(NCCN1CCN(S(=O)(=O)c2ccc(OC3CCNCC3)c(Br)c2)CC1)c1ccc(Cl)c(Cl)c1", "inhibition (%)": 3.33}
